B1: scFv; the commonest letter at each place (parent)
chain 1: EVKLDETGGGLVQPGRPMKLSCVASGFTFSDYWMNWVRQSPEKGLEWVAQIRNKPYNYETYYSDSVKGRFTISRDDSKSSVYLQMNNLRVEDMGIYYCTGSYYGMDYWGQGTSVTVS
chain 2: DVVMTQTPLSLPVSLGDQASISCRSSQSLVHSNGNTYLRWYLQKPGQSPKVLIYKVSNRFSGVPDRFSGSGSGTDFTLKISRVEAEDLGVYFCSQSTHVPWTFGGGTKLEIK

Variants of: B1
assay.details: Kd (Tite-Seq)
conditions: with fluorescein; format: scFv 4-4-20, heavy + light
pKd: −log10 of the molar value.
Quick reference: pKd of the listed items.

A selection of reference data follows.
chain 1 D106W Y107F; ≤ 5.00
chain 1 S101L G104S; ≤ 5.00
chain 1 T28S F29A; 7.20
chain 1 N35Q W36M; ≤ 5.00
chain 1 Y102V Y107D; ≤ 5.00
chain 1 S101H Y102R; ≤ 5.00

Query (variant): chain 1 N35L W36R ; field requested: pKd
≤ 5.00

Report pKd for chain 1 T28C V37N please.
≤ 5.00

Which pKd reading was recorded for the variant chain 1 M34W ?
7.41

Look up pKd: chain 1 G100A
8.77

Reported pKd for chain 1 Y102L D106R : what is it?
≤ 5.00

Any idea what its pKd is? The variant is chain 1 T28K M34K
5.16

Tell me the measured pKd of chain 1 D31N , please.
9.08

Fill in: pKd of chain 1 M34V W36N is ___
≤ 5.00

Given the variant chain 1 G100V G109L , what is its reported pKd?
≤ 5.00

Given the variant chain 1 Y32W W36A , what is its reported pKd?
≤ 5.00

State the recorded pKd for this entry: chain 1 Y102E G109N
≤ 5.00

What does the data say about its pKd? Entry: chain 1 M34I W36M
6.15

What value of pKd has been recorded for this entry: chain 1 Y107D W108N
≤ 5.00

Find the recorded pKd belonging to chain 1 Y102I and report it.
8.55

For the variant chain 1 F29P D31R , what pKd is on record?
7.59

Record request: pKd value, item chain 1 D31G N35A
≤ 5.00

// provenance: the FLAb antibody collection (doi:10.7554/elife.23156)
